Assay system UniProt P09382; read-out recorded as pIC50.
Sequence (P09382 whole entry): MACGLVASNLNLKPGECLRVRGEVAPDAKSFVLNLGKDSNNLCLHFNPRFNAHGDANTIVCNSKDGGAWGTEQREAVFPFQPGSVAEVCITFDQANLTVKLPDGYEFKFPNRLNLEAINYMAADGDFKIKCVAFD
pIC50: −log10 of the molar value.
metricName: pIC50

a = CC(C)(O)C(S[C@@H]1O[C@H](CO)[C@H](O)[C@H](n2cc(-c3cc(F)c(F)c(F)c3)nn2)[C@H]1O)C(=O)N1CCCCC1 (stereo partly shown)
b = CN(CC1CC1)C(=O)[C@H](S[C@@H]1O[C@H](CO)[C@H](O)[C@H](n2cc(-c3cc(F)c(F)c(F)c3)nn2)[C@H]1O)C1(O)CCOCC1 [Example 2.41.218R.]
c = O=C(C(S[C@@H]1O[C@H](CO)[C@H](O)[C@H](n2cc(-c3cc(F)c(F)c(F)c3)nn2)[C@H]1O)C1(O)CCCC1)N1CCC1 (stereo partly shown)
### Prompt Task field, ranking: reported pIC50, descending order. Write the labels, ordered according to the request.
### Response a, c, b
(a: 7.52, c: 6.11, b: 4.72)

All figures here come from patent US12410208B2.
